The measured values listed here are drawn from the supplement of paper PMC10567573.

B1: HESX1 (parent)
chain: SKYENYFSASERLSLKRELSWYRG

# Variants of: B1
# test_name: protein stability index of a GFP-peptide fusion (GPS, HEK-293T) (PSI 1-6); higher = more stable;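 also: lentivirally expressed fusions sorted by FACS into six bins by GFP to DsRed ratio, PSI derived from sequencing read proportions per bin multiplied by bin number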
# test_parameters: c terminus: a fixed tail appended
This section presents variants with their documented protein stability index values.

- A9K: 2.01
- L19C: 2.01
- L19M: 1.95
- E4M: 2.02
- E11N: 2

Please find the next variant below.
[ask] What does the data say about its protein stability index? Entry: `S14R`
[reply] 2.03
